Ref: patent US7705053B2

A collection of compounds and their measured inhibition at 20 µM
Tested on: HUVEC
test name: Tube formation assay
Format: cell-based
condition label: Homo sapiens, 264 h, 11 days of incubation, CD31 staining, read-out: capillary-like tube formation inhibition rates (%)
Answer format: number, then unit.

                                test_smiles  observed
0  COc1ccc(C(N)=O)cc1C(=O)Nc1ccccc1OC(F)(F)F       91%

Request: What does the record list as inhibition at 20 µM for COc1ccc(C(N)=O)cc1C(=O)Nc1ccc(F)cc1F ?
Response: 28%

Request: # input compound: COc1ccc(C(N)=O)cc1C(=O)Nc1ccccc1F ; wanted: its inhibition at 20 µM
Response: 27%

Request: Tell me the measured inhibition at 20 µM of COc1ccc(C(=O)NC2CCCC2)cc1/C=C/c1ccc(OC(F)(F)F)cc1 , please.
Response: 60%

====

Test system: HUVEC
test name: Tube formation assay
Type: cell-based
condition label: Homo sapiens, 264 h, 11 days of incubation, CD31 staining, read-out: capillary-like tube formation inhibition rates (%)
The label depends only on inhibition at 20 µM: t if it is at least 80%, f if it is smaller.

Reference set, count: 4
>>> print(df.to_string())
                                   compound  system_tested  category
0  COc1ccc(C(N)=O)cc1C(=O)Nc1cccc2ncccc12 [Compound 1-3-39]          HUVEC         f
1  COc1ccc(C(N)=O)cc1C(=O)Nc1ccc(Br)cc1Br [Compound 1-3-45]          HUVEC         f
2  COc1ccc(C(N)=O)cc1/C=C/c1ccc(OC(F)(F)F)cc1 [Compound 2-1-1]          HUVEC         t
3  COc1ccc(C(N)=O)cc1C(=O)Nc1ccccc1C [Compound 1-3-23, 4-methoxy3-N-o-tolylisophthalamide]          HUVEC         f

Here is another compound to look at.
Request: Test whether the compound CNC(=O)c1ccc(OC)c(/C=C/c2ccc(OC(F)(F)F)cc2)c1 [Compound 2-2-2] records inhibition at 20 µM of 80% or higher.
Response: f

====

Test system: Human umbilical vein endothelial cells (HUVEC)
test name: Cell proliferation assay (HUVEC)
Assay type: cell-based
condition label: 72 hours, WST-1, read-out: 50% growth inhibition concentration (IC50 value) HUVEC
pIC50: −log10 of the molar value.
Given measured pIC50, output label 1 if it is greater than or equal to 6 and label 0 if not.

                                   compound  category
0  COc1ccc(C(N)=O)cc1C(=O)Nc1ccc(F)cc1F [Compound 1-3-24]   label 0
1  COc1ccc(C(N)=O)cc1C(=O)Nc1ccccc1F [Compound 1-3-12]   label 0
2  COc1ccc(C(N)=O)cc1C(=O)Nc1ccccc1OC(F)(F)F [Compound 1-3-5]   label 1

Next item in the queue.
Request: Decide: is the reported value of pIC50 for COc1ccc(C(N)=O)cc1C(=O)Nc1cc(C(F)(F)F)ccc1Cl [Compound 1-3-16] equal to or greater than 6?
Response: label 0

====

System: HUVEC
test name: Tube formation assay
Assay type: cell-based
condition label: Homo sapiens, 264 h, 11 days of incubation, CD31 staining, read-out: capillary-like tube formation inhibition rates (%)
reported endpoint: inhibition at 20 µM
Reply with the number, then its unit.

Here's what some known entries look like.
In [3]: df
Out[3]:
                                test_smiles  system_tested    reported_endpoint  observed
0  COc1cc(NC(=O)c2cc(C(N)=O)ccc2OC)cc(OC)c1          HUVEC  inhibition at 20 µM       29%
1  COc1ccc(C(N)=O)cc1C(=O)Nc1ccc(OC(F)(F)F)cc1          HUVEC  inhibition at 20 µM       68%
2      COc1ccc(C(N)=O)cc1C(=O)Nc1ccc(Cl)cc1          HUVEC  inhibition at 20 µM       43%
3  COc1ccc(C(N)=O)cc1C(=O)Nc1ccc(C(F)(F)F)cc1          HUVEC  inhibition at 20 µM       71%
4    COc1ccc(C(N)=O)cc1C(=O)Nc1cccc2c1CCCC2          HUVEC  inhibition at 20 µM       46%

Request: Tell me the measured inhibition at 20 µM of COc1ccc(C(N)=O)cc1C(=O)Nc1ccccc1Cl , please.
Response: 67%

Request: Quick check: inhibition at 20 µM of COc1ccccc1NC(=O)c1cc(C(N)=O)ccc1OC ?
Response: 46%

====

Test system: HUVEC
test name: Tube formation assay
Type: cell-based
condition label: Homo sapiens, 264 h, 11 days of incubation, CD31 staining, read-out: capillary-like tube formation inhibition rates (%)
inhibition at 20 µM: recorded values
Write down the numeric answer in % and omit the unit.

Recorded inhibition at 20 µM, per entry:
                                   molecule  system_tested    reported_endpoint  unit_label  observed
0  COc1ccc(C(N)=O)cc1C(=O)Nc1cc(C(F)(F)F)ccc1Cl [Compound 1-3-16]          HUVEC  inhibition at 20 µM           %        80
1  COc1ccc(C(N)=O)cc1C(=O)Nc1ccc(Br)cc1Cl [Compound 1-3-41]          HUVEC  inhibition at 20 µM           %        82
2  CCNC(=O)c1ccc(OC)c(/C=C/c2ccc(Cl)cc2)c1 [Compound 2-2-9]          HUVEC  inhibition at 20 µM           %        79

Request: What value of measured inhibition at 20 µM is listed for COc1ccc(C(N)=O)cc1C(=O)Nc1cc(C)c(F)cc1Cl [Compound 1-3-17] ?
Response: 80

====

Tested on: Human umbilical vein endothelial cells (HUVEC)
test name: Cell proliferation assay (HUVEC)
Assay type: cell-based
condition label: 72 hours, WST-1, read-out: 50% growth inhibition concentration (IC50 value) HUVEC
pIC50: −log10 of the molar value.
Rule: pIC50 under 6 gives -1, otherwise 1.

Past entries and their recorded results:
>>> print(df.to_string())
                                   molecule  category
0  COc1ccc(C(=O)NC2CCCC2)cc1/C=C/c1ccc(OC(F)(F)F)cc1 [Compound 2-2-1]        -1
1  COc1ccc(C(N)=O)cc1C(=O)Nc1cccc2ncccc12 [Compound 1-3-39]        -1
2  COc1ccc(C(N)=O)cc1C(=O)Nc1ccc(OC(F)(F)F)cc1 [Compound 1-2-1]        -1
3  COc1ccc(C(N)=O)cc1C(=O)Nc1ccc(Br)cc1Cl [Compound 1-3-41]         1
4  COc1ccc(C(N)=O)cc1/C=C/c1ccc(OC(F)(F)F)cc1 [Compound 2-1-1]         1

// switching to the query molecule
Request: Confirm if pIC50 reported for the molecule COc1ccc(C(N)=O)cc1C(=O)Nc1cccc2c1CCCC2 [Compound 1-3-6] is 6 or above.
Response: 1

====

System: Human umbilical vein endothelial cells (HUVEC)
test name: Cell proliferation assay (HUVEC)
Assay type: cell-based
condition label: 72 hours, WST-1, read-out: 50% growth inhibition concentration (IC50 value) HUVEC
reported endpoint: pIC50
Please report pIC50 as the negative decimal logarithm of the molar concentration, giving only the number.

Below are worked cases with known answers.
In [3]: df
Out[3]:
                                   molecule                             system_tested  observed
0        COc1ccccc1NC(=O)c1cc(C(N)=O)ccc1OC  Human umbilical vein endothelial cells (HUVEC)      6.12
1  COc1cc(NC(=O)c2cc(C(N)=O)ccc2OC)cc(OC)c1  Human umbilical vein endothelial cells (HUVEC)      5.90
2  CNC(=O)c1ccc(OC)c(/C=C/c2ccc(OC(F)(F)F)cc2)c1  Human umbilical vein endothelial cells (HUVEC)      5.64

Request: Entry COc1ccc(C(N)=O)cc1C(=O)Nc1cc(C)c(F)cc1Cl : reported pIC50 = ?
Response: 5.92

Request: Suppose we examine the molecule COc1ccc(C(N)=O)cc1C(=O)Nc1ccc(Br)cc1F ; what pIC50 value has been reported?
Response: 6.72

Request: Give its pIC50 value. Item: COc1ccc(C(N)=O)cc1C(=O)Nc1cccc(Cl)c1Cl
Response: 6.82

Request: Request the reported pIC50 associated with COc1ccc(C(N)=O)cc1C(=O)Nc1ccc(Br)cc1Br
Response: 7.30

====

Tested on: Human umbilical vein endothelial cells (HUVEC)
test name: Cell proliferation assay (HUVEC)
Type: cell-based
condition label: 72 hours, WST-1, read-out: 50% growth inhibition concentration (IC50 value) HUVEC
Define the label as rule met when IC50 is strictly less than 1000 nM and as rule not met in all remaining cases.

Would you please look over these solved cases?
>>> print(df.to_string())
                                   molecule      category
0  COc1ccc(C(N)=O)cc1C(=O)Nc1ccccc1C [Compound 1-3-23, 4-methoxy3-N-o-tolylisophthalamide]  rule not met
1      COc1ccc(C(N)=O)cc1C(=O)Nc1ccc(Cl)cc1  rule not met
2  COc1ccc(C(N)=O)cc1C(=O)Nc1cccc(C(F)(F)F)c1F      rule met
3        COc1ccc(C(N)=O)cc1C(=O)Nc1ccccc1Cl      rule met
4  COc1ccc(C(N)=O)cc1C(=O)Nc1ccc(C(F)(F)F)cc1  rule not met

Request: Problem: For the molecule CCNC(=O)c1ccc(OC)c(/C=C/c2ccc(Cl)cc2)c1 , is IC50 under 1000 nM?
Response: rule not met
